target: Short transient receptor potential channel 5 (Homo sapiens, UniProt Q9UL62); experiment: Inhibition of TRPC5 channel (unknown origin) expressed in HEK293 cells assessed as inhibition of EA-evoked Ca2+ entry by measuring reduction in intracellular Ca2+ level by Fluo-4 dye based FLIPR assay; format: cell-based
Sequence (Q9UL62 whole entry): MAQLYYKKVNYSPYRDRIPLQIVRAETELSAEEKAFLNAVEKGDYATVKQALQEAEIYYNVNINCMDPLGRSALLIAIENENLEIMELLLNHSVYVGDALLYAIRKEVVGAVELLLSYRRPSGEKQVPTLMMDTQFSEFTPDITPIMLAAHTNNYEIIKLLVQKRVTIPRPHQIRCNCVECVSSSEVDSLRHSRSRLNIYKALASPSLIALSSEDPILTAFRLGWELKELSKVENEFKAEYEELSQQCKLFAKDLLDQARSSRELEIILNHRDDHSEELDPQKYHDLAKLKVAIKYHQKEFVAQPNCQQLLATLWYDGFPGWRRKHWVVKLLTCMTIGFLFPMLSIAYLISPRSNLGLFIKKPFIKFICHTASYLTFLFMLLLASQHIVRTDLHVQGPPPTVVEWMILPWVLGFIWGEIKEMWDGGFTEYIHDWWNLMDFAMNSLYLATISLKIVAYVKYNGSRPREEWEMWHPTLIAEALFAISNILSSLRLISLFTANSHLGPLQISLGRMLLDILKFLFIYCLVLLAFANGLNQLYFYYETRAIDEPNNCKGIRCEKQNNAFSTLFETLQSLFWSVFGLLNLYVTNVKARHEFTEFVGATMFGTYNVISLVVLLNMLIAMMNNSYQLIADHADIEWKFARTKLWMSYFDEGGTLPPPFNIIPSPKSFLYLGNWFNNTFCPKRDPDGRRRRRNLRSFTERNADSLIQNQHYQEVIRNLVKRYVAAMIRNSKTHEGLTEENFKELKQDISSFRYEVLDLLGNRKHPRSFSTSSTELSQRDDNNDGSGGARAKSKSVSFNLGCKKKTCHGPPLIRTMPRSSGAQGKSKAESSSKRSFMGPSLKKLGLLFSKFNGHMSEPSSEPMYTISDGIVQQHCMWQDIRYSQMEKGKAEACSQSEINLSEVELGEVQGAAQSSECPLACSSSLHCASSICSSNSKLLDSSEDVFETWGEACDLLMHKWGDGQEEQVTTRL
pIC50: −log10 of the molar value.
result.type: pIC50

Use the examples below as a reference point.
C#Cc1cc(F)ccc1Oc1ncnc2c1CCN(C1=C(Cl)C(=O)NC1=O)C2; 6.20
O=C1NC(=O)C(N2CCc3c(ncnc3Oc3ccc(F)cc3Cl)C2)=C1Cl; 6.55

a: O=C1NC(=O)C(N2CCc3ncn(Cc4ccccc4C(F)(F)F)c3C2)=C1Cl
b: O=C1CN(c2cn[nH]c(=O)c2Cl)CCN1Cc1ccccc1C(F)(F)F
input: For this pair, a and b , which shows a numerically higher pIC50? Give the label under which the chosen entry appears.
output: b
